tested on: SNB-78; assay: Growth inhibition of human SNB-78 cells measured after 48 hrs by sulforhodamine B assay; type: functional
Reported Metric: GI50 (µM)

molecule=O=c1c(-c2ccc(O)cc2)coc2cc(O)cc(O)c12 display_unit=µM value_relation_sign== assay_value=38.9
molecule="COc1cc([C@@H]2c3cc4c(cc3[C@@H](O[C@@H]3O[C@@H]5CO[C@@H](C)O[C@H]5[C@H](O)[C@H]3O)[C@H]3COC(=O)[C@H]23)OCO4)cc(OC)c1O [ETOPOSIDE]" display_unit=µM value_relation_sign== assay_value=44.7
molecule=CC(C)(O)[C@H]1Cc2c(cc(O)c3c(=O)c(-c4ccc(O)cc4)coc23)O1 display_unit=µM value_relation_sign=> assay_value=100
molecule=CC(C)(O)[C@@H]1Cc2c(cc(O)c3c(=O)c(-c4ccc(O)cc4)coc23)O1 display_unit=µM value_relation_sign== assay_value=5.89
